Items are presented alongside their recorded av puncta.
target: tau (Homo sapiens, UniProt P10636); assay: MCE Phenols Library screening, tau biosensor cell seeding assay (AvZ); format: cell-based; conditions: average of raw data 1 and 2
Sequence (P10636 623-695 limits assumed): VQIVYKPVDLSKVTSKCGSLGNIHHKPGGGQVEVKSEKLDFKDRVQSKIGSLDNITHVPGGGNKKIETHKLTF
Just the number.

See these solved cases before continuing.
{"columns": ["molecule", "av puncta"],
 "data": [
  ["COc1cc(/C=C/C(=O)O[C@H]2[C@H](O)C[C@](O)(C(=O)O)C[C@H]2O)ccc1O", 6372.47],
  ["COc1ccc(-c2oc3c(CC=C(C)C)c(O[C@@H]4O[C@H](CO)[C@@H](O)[C@H](O)[C@H]4O)cc(O)c3c(=O)c2O[C@@H]2O[C@@H](C)[C@H](O)[C@@H](O)[C@H]2O)cc1", 24883.3],
  ["CC(=O)c1ccc(O)cc1C [4?-Hydroxy-2?-methylacetophenone]", 21207.9],
  ["O=C(O)c1cc(O)c(O)c(O)c1", 803.018],
  ["O=C1c2cccc(O)c2C(=O)c2c(O)cccc21", 9858.03]
]}

stdin: Identify measured av puncta obtained with tau (Homo sapiens, UniProt P10636) for O=c1cc(-c2ccc(O)c(O)c2)oc2cc(O)c([C@@H]3O[C@H](CO)[C@@H](O)[C@H](O)[C@H]3O)c(O)c12 .
stdout: 24030.3

stdin: Identify measured av puncta obtained with tau (Homo sapiens, UniProt P10636) for O=C1c2c(O)cc(O)cc2O[C@H](c2ccc(O)cc2)[C@H]1O [Dihydrokaempferol] .
stdout: 19127

stdin: Identify measured av puncta obtained with tau (Homo sapiens, UniProt P10636) for Cc1cc(=O)oc2cc(O)c(O)cc12 .
stdout: 21252.2

----------
target: tau (Homo sapiens); experiment: MCE Phenols Library screening, tau biosensor cell seeding assay (AvZ); assay type: cell-based; conditions: Z score, replicate 1
Mark Not met for Z repl 1 values under 0.2, and Met for everything at or above.

Take a look at these entries with their results.
{"columns": ["compound", "classification"],
 "data": [
  ["Oc1cc2cc[nH]c2cc1O [5,6-Dihydroxyindole]", "Not met"],
  ["COc1cc(C[C@@H](CO)[C@H](CO)Cc2ccc(O)c(OC)c2)ccc1O [Secoisolariciresinol]", "Met"],
  ["CC(C)(O)CCc1c(O)cc(O)c2c(=O)c(O)c(-c3ccc(O)cc3)oc12 [Noricaritin]", "Met"],
  ["Cc1cc(O)cc(O)c1 [Orcinol]", "Not met"],
  ["Cc1c(C)c2c(c(C)c1O)CC[C@@](C)(CCC[C@H](C)CCC[C@H](C)CCCC(C)C)O2 [?-Vitamin E]", "Not met"]
]}

// switching to the query compound
stdin: Could you please find out whether Oc1cc(O)c2c(c1)O[C@@]1(c3ccc(O)c(O)c3)Oc3cc(O)c4c(c3[C@@H]2[C@H]1O)O[C@H](c1ccc(O)c(O)c1)[C@H](O)C4 [Procyanidin A2] has Z repl 1 that meets 0.2 or exceeds it?
stdout: Not met

----------
Items are presented alongside their recorded AvZ (average z score of seeding, SDs from the mean level of seeding).
molecular target: tau (Homo sapiens, UniProt P10636); assay: MCE Phenols Library screening, tau biosensor cell seeding assay (AvZ); assay type: cell-based; conditions: 10 μM phenol in cell cultures, AD brain homogenate preincubated 16 hours, two biological replicates; positive = catalyzes seeding, negative = inhibits
Just the number.

stdin: // Input: O=C(O)c1cccc(O)c1 [3-Hydroxybenzoic acid] . Output its AvZ (average z score of seeding, SDs from the mean level of seeding) only.
stdout: -0.814

----------
Items are presented alongside their recorded raw data 2.
target: tau (Homo sapiens, UniProt P10636); experiment: MCE Phenols Library screening, tau biosensor cell seeding assay (AvZ); assay type: cell-based; details: puncta, replicate 2
Just the number.

{"columns": ["compound", "study_system", "raw data 2"],
 "data": [
  ["O=C(/C=C/c1ccc(O)c(O)c1)N[C@@H](Cc1ccc(O)c(O)c1)C(=O)O [Clovamide]", "tau (Homo sapiens, UniProt P10636)", 1190.55],
  ["CC(C)(c1ccc(O)cc1)c1ccc(O)cc1", "tau (Homo sapiens, UniProt P10636)", 13670.7],
  ["COc1cc(C(C)=O)ccc1O", "tau (Homo sapiens, UniProt P10636)", 10795.4]
]}

stdin: Identify measured raw data 2 obtained with tau (Homo sapiens, UniProt P10636) for O=c1oc2c(O)c(O)cc3c(=O)oc4c(O)c(O)cc1c4c23 .
stdout: 12045.1

stdin: Identify measured raw data 2 obtained with tau (Homo sapiens, UniProt P10636) for COc1ccc(C(C)=O)c(O)c1O [2,3-Dihydroxy-4-methoxyacetophenone] .
stdout: 11440.6

stdin: Identify measured raw data 2 obtained with tau (Homo sapiens, UniProt P10636) for OC[C@H]1O[C@@H](Oc2cc3c(O)cc(O)cc3[o+]c2-c2ccc(O)c(O)c2)[C@H](O[C@@H]2OC[C@@H](O)[C@H](O)[C@H]2O)[C@@H](O)[C@@H]1O.[Cl-] [Cyanidin 3-sambubioside (chloride)] .
stdout: 1999.21

stdin: Identify measured raw data 2 obtained with tau (Homo sapiens, UniProt P10636) for OC[C@H]1O[C@@H](Oc2cc3c(O)cc(O)cc3[o+]c2-c2cc(O)c(O)c(O)c2)[C@H](O)[C@@H](O)[C@@H]1O.[Cl-] [Delphinidin 3-glucoside (chloride)] .
stdout: 259.098

stdin: Identify measured raw data 2 obtained with tau (Homo sapiens, UniProt P10636) for COc1ccc(-c2oc3cc(O)cc(O)c3c(=O)c2O)cc1 [Kaempferide] .
stdout: 1554.77

stdin: Identify measured raw data 2 obtained with tau (Homo sapiens, UniProt P10636) for COc1cc(C[C@@H](CO)[C@H](CO)Cc2ccc(O)c(OC)c2)ccc1O [Secoisolariciresinol] .
stdout: 17316.5

stdin: Identify measured raw data 2 obtained with tau (Homo sapiens, UniProt P10636) for CC(=O)O[C@H](CC=C(C)C)C1=CC(=O)c2c(O)ccc(O)c2C1=O .
stdout: 23844.2

stdin: Identify measured raw data 2 obtained with tau (Homo sapiens, UniProt P10636) for COc1cc(O)c2c(=O)c(-c3ccc(O)cc3)coc2c1 .
stdout: 37293.6

stdin: Identify measured raw data 2 obtained with tau (Homo sapiens, UniProt P10636) for COc1cc2oc(-c3ccccc3)cc(=O)c2c(O)c1O .
stdout: 7055.07

stdin: Identify measured raw data 2 obtained with tau (Homo sapiens, UniProt P10636) for C=CCc1cc(OC)c(O[C@@H](C)[C@H](O)c2ccc(O)c(OC)c2)c(OC)c1 .
stdout: 15954.5

stdin: Identify measured raw data 2 obtained with tau (Homo sapiens, UniProt P10636) for C[C@@H]1O[C@@H](O[C@@H]2[C@@H](O)[C@H](OCCc3ccc(O)c(O)c3)O[C@H](CO)[C@H]2OC(=O)/C=C/c2ccc(O)c(O)c2)[C@H](O)[C@H](O)[C@H]1O [Verbascoside] .
stdout: 1501.28

stdin: Identify measured raw data 2 obtained with tau (Homo sapiens, UniProt P10636) for C[C@@H]1O[C@@H](Oc2cc(O)c3c(=O)c(O[C@@H]4O[C@@H](C)[C@H](O)[C@@H](O)[C@H]4O)c(-c4ccc(O)cc4)oc3c2)[C@H](O)[C@H](O)[C@H]1O .
stdout: 8006.82

----------
target: tau (Homo sapiens, UniProt P10636); test: MCE Phenols Library screening, tau biosensor cell seeding assay (AvZ); assay type: cell-based; conditions: puncta, replicate 1
quantity_name: raw data 1

See these solved cases before continuing.
{"columns": ["compound", "raw data 1"],
 "data": [
  ["O=C(O[C@H]1[C@H](Oc2c(-c3ccc(O)c(O)c3)oc3cc(O)cc(O)c3c2=O)O[C@H](CO)[C@H](O)[C@@H]1O)c1cc(O)c(O)c(O)c1", 15187.3],
  ["O=c1cc(-c2ccccc2)oc2c(O)c(O)cc(O)c12", 14754.3],
  ["COc1c(/C=C/C(=O)c2ccc(O)c(CC=C(C)C)c2)ccc(O)c1O", 28009.4],
  ["OCc1ccc(O[C@@H]2O[C@H](CO)[C@@H](O)[C@H](O)[C@H]2O)cc1", 13738.4],
  ["COC(=O)c1c(C)cc(OC(=O)c2c(C)cc(O)c(C=O)c2O)c(C)c1O", 22066.2]
]}

stdin: // Input: CC(C)=CCC[C@]1(C)C=Cc2c(O)c3c(c(CC=C(C)C)c2O1)O[C@]12C(=C[C@@H]4C[C@H]1C(C)(C)O[C@@]2(C/C=C(/C)C(=O)O)C4=O)C3=O . Output its raw data 1 only.
stdout: 33.834

stdin: // Input: CCCCC[C@H](O)CC(=O)CCc1ccc(O)c(OC)c1 [[6]-Gingerol] . Output its raw data 1 only.
stdout: 30973.3

----------
molecular target: tau (Homo sapiens); test: MCE Phenols Library screening, tau biosensor cell seeding assay (AvZ); assay type: cell-based; conditions: average puncta of the two replicates
quantity_name: av puncta
Just the number.

stdin: Identify measured av puncta obtained with tau (Homo sapiens) for O=c1c(O[C@@H]2OC[C@H](O)[C@H](O)[C@H]2O)c(-c2ccc(O)c(O)c2)oc2cc(O)cc(O)c12 .
stdout: 17108.5

stdin: Identify measured av puncta obtained with tau (Homo sapiens) for CC(=O)c1cc2c(CO)cc(O)cc2oc1=O .
stdout: 16013.9

stdin: Identify measured av puncta obtained with tau (Homo sapiens) for CC(=O)OCCc1ccc(O)c(O)c1 [Hydroxytyrosol acetate] .
stdout: 13936.9

stdin: Identify measured av puncta obtained with tau (Homo sapiens) for O=C(O)c1cccc(O)c1O .
stdout: 15926.2

stdin: Identify measured av puncta obtained with tau (Homo sapiens) for Cc1cc(=O)c2c(O)cc(O)cc2o1 .
stdout: 14938

stdin: Identify measured av puncta obtained with tau (Homo sapiens) for O=c1c(O)c(-c2ccc(O)c(O)c2)oc2c(O[C@@H]3O[C@H](CO)[C@@H](O)[C@H](O)[C@H]3O)c(O)cc(O)c12 .
stdout: 11471.3

stdin: Identify measured av puncta obtained with tau (Homo sapiens) for O=c1ccc2cc(O)c(O)cc2o1 .
stdout: 13364.4

stdin: Identify measured av puncta obtained with tau (Homo sapiens) for COc1cc(C=O)cc(OC)c1O .
stdout: 16255.1

stdin: Identify measured av puncta obtained with tau (Homo sapiens) for Cc1cc(O)c2c(c1)C(=O)c1cc(O)cc(O)c1C2=O .
stdout: 16696.4

stdin: Identify measured av puncta obtained with tau (Homo sapiens) for O=C(O)Cc1cc(O)ccc1O[C@@H]1O[C@H](CO)[C@@H](O)[C@H](O)[C@H]1O .
stdout: 15704.2

stdin: Identify measured av puncta obtained with tau (Homo sapiens) for COc1ccc(-c2oc3cc(O)cc(O)c3c(=O)c2O)cc1O .
stdout: 14033.4

stdin: Identify measured av puncta obtained with tau (Homo sapiens) for CC(C)=CCc1cc(C(=O)/C=C/c2ccc(O)cc2)c(O)cc1O .
stdout: 13584.6

stdin: Identify measured av puncta obtained with tau (Homo sapiens) for O=C(O)CCc1ccc(O)c(O)c1 [Dihydrocaffeic acid] .
stdout: 14716.5

stdin: Identify measured av puncta obtained with tau (Homo sapiens) for COc1ccc2c(c1OC)O[C@H]1c3ccc(O)cc3OC[C@@H]21 .
stdout: 12658.4

stdin: Identify measured av puncta obtained with tau (Homo sapiens) for OC[C@H]1O[C@@H](Oc2cc3c(O)cc(O)cc3[o+]c2-c2ccc(O)c(O)c2)[C@H](O)[C@@H](O)[C@@H]1O.[Cl-] [Kuromanin (chloride)] .
stdout: 14314.9

stdin: Identify measured av puncta obtained with tau (Homo sapiens) for COc1cc(/C=C/C(=O)OCC2OC(OC3(CO)OC(CO)C(O)C3OC(=O)/C=C/c3cc(OC)c(O)c(OC)c3)C(O)C(O)C2O)cc(OC)c1O (stereo not drawn) [(E)-3',6-Disinapoylsucrose] .
stdout: 17367.3

stdin: Identify measured av puncta obtained with tau (Homo sapiens) for COc1cc(CCN)ccc1O .
stdout: 16341.1

stdin: Identify measured av puncta obtained with tau (Homo sapiens) for O=C(C=Cc1ccc(O)c(O)c1)OC1CC(O)(C(=O)O)CC(O)C1OC(=O)C=Cc1ccc(O)c(O)c1 (stereo not drawn) .
stdout: 12104.8

stdin: Identify measured av puncta obtained with tau (Homo sapiens) for O=c1c(O[C@@H]2O[C@H](CO)[C@@H](O)[C@H](O)[C@H]2O)c(-c2ccc(O)c(O)c2)oc2cc(O[C@@H]3O[C@H](CO[C@@H]4O[C@H](CO)[C@@H](O)[C@H](O)[C@H]4O)[C@@H](O)[C@H](O)[C@H]3O)cc(O)c12 .
stdout: 13864.9

stdin: Identify measured av puncta obtained with tau (Homo sapiens) for O=C(O)c1ccc(O)cc1 [4-Hydroxybenzoic acid] .
stdout: 13431

stdin: Identify measured av puncta obtained with tau (Homo sapiens) for O=C(O)c1ccc(O)c(O)c1O [2,3,4-Trihydroxybenzoic acid] .
stdout: 15461.1

stdin: Identify measured av puncta obtained with tau (Homo sapiens) for C[C@@H]1O[C@@H](Oc2c(-c3ccc(O)c(O)c3)oc3cc(O)cc(O)c3c2=O)[C@H](O)[C@H](O)[C@H]1O .
stdout: 17263.5

stdin: Identify measured av puncta obtained with tau (Homo sapiens) for OC[C@H]1O[C@@H](Oc2cc(O)ccc2/C=C/c2cc(O)cc(O)c2)[C@H](O)[C@@H](O)[C@@H]1O [Oxyresveratrol 2-O-?-D-glucopyranoside] .
stdout: 14655.6

stdin: Identify measured av puncta obtained with tau (Homo sapiens) for O=C(/C=C/c1ccc(O)cc1)OC[C@H]1O[C@@H](Oc2c(-c3ccc(O)cc3)oc3cc(O)cc(O)c3c2=O)[C@H](O)[C@@H](O)[C@@H]1O [Tribuloside] .
stdout: 14393.7

stdin: Identify measured av puncta obtained with tau (Homo sapiens) for C/C=C/c1ccc(OC(C)=O)c(OC)c1 [Isoeugenol acetate] .
stdout: 16103.3

stdin: Identify measured av puncta obtained with tau (Homo sapiens) for O=C(O)[C@H](O)Cc1ccc(O)c(O)c1 .
stdout: 11586.7

Origin of values: paper PMC11784839
